molecular target: hAPJ receptor (Homo sapiens); construct: expressed in transfected cells; host or cells: HEK293, transient transfection with PEI; test: BRET-based β-arrestin2 recruitment assay in HEK293 cells; format: cell-based; details: HEK293; read-out: β-arr2 Emax
Readout kind: Emax (%)
Dear colleague, please return just the value in %, with no unit written.

{"Compound": "CC(C)C[C@@H]1NC(=O)[C@H](CCCNC(=N)N)NC(=O)[C@@H](N)CC=CC[C@@H](C(=O)N[C@@H](CCCCN)C(=O)NCC(=O)N2CCC[C@H]2C(=O)N[C@H](Cc2ccc3ccccc3c2)C(=O)O)NC(=O)[C@H](CO)NC1=O [Compound 43, NH2-c[X-R-L-S-X]c-K-G-P-(D-2Nal)]", "Measurement": 55}
{"Compound": "CCCC[C@H](NC(=O)[C@@H]1CCCN1C(=O)CNC(=O)[C@H](CCCCN)NC(=O)[C@@H]1Cc2cncn2CC=CC[C@H](NC(=O)[C@H](CCCNC(=N)N)NC(=O)[C@@H]2CCC(=O)N2)C(=O)N[C@@H](CCCNC(=N)N)C(=O)N[C@@H](CC(C)C)C(=O)N[C@@H](CO)C(=O)N1)C(=O)N1CCC[C@H]1C(=O)N[C@@H](Cc1ccccc1)C(=O)O [Compound 15, Pyr-R-c[X-R-L-S-Alh]c-K-G-P-Nle-P-F]", "Measurement": 115}

Pending compound:
Task item: Given the compound CCCC[C@H](NC(=O)[C@@H]1CCCN1C(=O)CNC(=O)[C@H](CCCCN)NC(=O)[C@@H]1CC=CC[C@H](N)C(=O)N[C@@H](CCCNC(=N)N)C(=O)N[C@@H](CC(C)C)C(=O)N[C@@H](CO)C(=O)N1)C(=O)N1CCC[C@H]1C(=O)N[C@@H](Cc1ccccc1)C(=O)O [Compound 20, NH2-c[X-R-L-S-X]c-K-G-P-Nle-P-F] , what is its reported Emax?
Reply: 98

---

Molecular target: hAPJ receptor (Homo sapiens, UniProt P35414)
Construct: expressed in transfected cells; host or cells: HEK293, transient transfection with PEI
Sequence (P35414 1-380): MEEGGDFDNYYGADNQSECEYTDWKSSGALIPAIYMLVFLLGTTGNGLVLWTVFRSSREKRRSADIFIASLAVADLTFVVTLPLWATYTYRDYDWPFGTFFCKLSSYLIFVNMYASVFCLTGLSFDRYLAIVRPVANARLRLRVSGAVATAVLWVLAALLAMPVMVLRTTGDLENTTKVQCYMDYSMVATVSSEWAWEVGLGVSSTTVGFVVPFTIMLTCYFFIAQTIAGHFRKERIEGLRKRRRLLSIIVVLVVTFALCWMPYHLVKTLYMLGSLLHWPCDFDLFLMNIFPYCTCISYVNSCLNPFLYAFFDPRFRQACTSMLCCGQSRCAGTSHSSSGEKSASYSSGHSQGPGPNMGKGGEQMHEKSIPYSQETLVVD
Test: BRET-based Gαi1 activation assay in HEK293 cells
Format: cell-based
Settings: HEK293; Table V; read-out: Gαi1 Emax
Readout kind: Emax (%)
The answer is to be given in %; state only the numeric part.

Known Emax results, listed for orientation:
{"Molecule": "CCCC[C@H](NC(=O)[C@@H]1CCCN1C(=O)CNC(=O)[C@H](CCCCN)NC(=O)[C@@H]1CC=CC[C@H](N)C(=O)N[C@@H](CCCNC(=N)N)C(=O)N[C@@H](CC(C)C)C(=O)N[C@@H](CO)C(=O)N1)C(=O)N1CCC[C@H]1C(=O)N[C@@H](Cc1ccccc1)C(=O)O [Compound 20, NH2-c[X-R-L-S-X]c-K-G-P-Nle-P-F]", "Unit": "%", "Emax": 100}
{"Molecule": "CCCC[C@H](NC(=O)[C@@H]1CCCN1C(=O)CNC(=O)[C@H](CCCCN)NC(=O)[C@@H]1CC=CC[C@H](NC(=N)N)C(=O)N[C@@H](CCCNC(=N)N)C(=O)N[C@@H](CC(C)C)C(=O)N[C@@H](CO)C(=O)N1)C(=O)N1CCC[C@H]1C(=O)N[C@@H](Cc1ccccc1)C(=O)O [Compound 23, Guanidine-c[X-R-L-S-X]c-K-G-P-Nle-P-F]", "Unit": "%", "Emax": 103}

Please examine the following record next.
Task item: Given the entry CCCC[C@H](NC(=O)[C@@H]1CCCN1C(=O)CNC(=O)[C@H](CCCCN)NC(=O)[C@@H]1CC=CC[C@H](N)C(=O)N[C@@H](CCCNC(=N)N)C(=O)N[C@@H](CC(C)C)C(=O)N[C@@H](CO)C(=O)N1)C(=O)O [Compound 29, NH2-c[X-R-L-S-X]c-K-G-P-Nle] , report its measured Emax.
Reply: 99

// data source = patent US20240343761A1
